Cited source: the supplement of paper PMC10567573

Reported values of protein stability index for individual entries
B1: ZC3H15 (parent)
chain: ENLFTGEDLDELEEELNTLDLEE

# Variants of: B1
# TEST PROTOCOL: protein stability index of a GFP-peptide fusion (GPS, HEK-293T) (PSI 1-6); higher = more stable;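 note: lentivirally expressed fusions sorted by FACS into six bins by GFP to DsRed ratio, PSI derived from sequencing read proportions per bin multiplied by bin number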
# CONDITIONS USED: c terminus: native
Simply state the number, no unit and no words.

[
  {
    "MUTATION CODE": "D10M",
    "protein stability index": 3.89
  },
  {
    "MUTATION CODE": "E7L",
    "protein stability index": 3.98
  },
  {
    "MUTATION CODE": "E1T",
    "protein stability index": 4.11
  }
]

Consider the additional variant presented here.
# variant D10W ; its protein stability index = 4.02
